Tested on: proteasome ChT-like activity in RPMI-8226 cells
Assay: Cell-based high-throughput screen of proteasome ChT-like activity (LLVY-R110)
Parameters: species or system human
Conditions: 3 µmol/L, 21 hours, then LLVY-R110 18 hours
Fold-Increase of proteasome ChT-like activity in the HTS: recorded values
Give just the number in fold; leave the unit off.

Query Fold-Increase of proteasome ChT-like activity in the HTS for "CC[C@@H](C(=O)[C@@H](C)[C@@H](O)[C@H](C)[C@@H]1O[C@@H]([C@@H](CC)C(=O)O)CC[C@@H]1C)[C@H]1O[C@]2(C=C[C@@H](O)[C@]3(CC[C@@](C)([C@H]4CC[C@](O)(CC)[C@H](C)O4)O3)O2)[C@H](C)C[C@@H]1C"
2.0

Query Fold-Increase of proteasome ChT-like activity in the HTS for CC(=O)O[C@H]1CC[C@@]2(C)C(=CC[C@@H]3[C@@H]2CC[C@]2(C)C(c4cccnc4)=CC[C@@H]32)C1 [Abiraterone acetate]
1.7

Query Fold-Increase of proteasome ChT-like activity in the HTS for "COC1=C(OC)C(=O)c2ccccc2C1=O"
1.2

Query Fold-Increase of proteasome ChT-like activity in the HTS for O.c1cnc2c(c1)ccc1cccnc12 [1,10-phenanthroline monohydrate]
1.3

Query Fold-Increase of proteasome ChT-like activity in the HTS for "CN(CCCCCCNc1ccnc2cc(Cl)ccc12)CCCCCCNc1ccnc2cc(Cl)ccc12"
1.6

Next:
Query Fold-Increase of proteasome ChT-like activity in the HTS for "C=C(C)[C@@H]1CC[C@]2(C(=O)O)CC[C@]3(C)[C@H](CC[C@@H]4[C@@]5(C)CC[C@H](O)C(C)(C)[C@@H]5CC[C@]43C)[C@@H]12"
1.3

Query Fold-Increase of proteasome ChT-like activity in the HTS for "CO[C@H]1C[C@@H]2CC[C@@H](C)[C@@](O)(O2)C(=O)C(=O)N2CCCC[C@H]2C(=O)O[C@H]([C@H](C)C[C@@H]2CC[C@@H](O)[C@H](OC)C2)CC(=O)[C@H](C)/C=C(\C)[C@@H](O)[C@@H](OC)C(=O)[C@H](C)C[C@H](C)/C=C/C=C/C=C/1C"
1.8

====

Target sequence: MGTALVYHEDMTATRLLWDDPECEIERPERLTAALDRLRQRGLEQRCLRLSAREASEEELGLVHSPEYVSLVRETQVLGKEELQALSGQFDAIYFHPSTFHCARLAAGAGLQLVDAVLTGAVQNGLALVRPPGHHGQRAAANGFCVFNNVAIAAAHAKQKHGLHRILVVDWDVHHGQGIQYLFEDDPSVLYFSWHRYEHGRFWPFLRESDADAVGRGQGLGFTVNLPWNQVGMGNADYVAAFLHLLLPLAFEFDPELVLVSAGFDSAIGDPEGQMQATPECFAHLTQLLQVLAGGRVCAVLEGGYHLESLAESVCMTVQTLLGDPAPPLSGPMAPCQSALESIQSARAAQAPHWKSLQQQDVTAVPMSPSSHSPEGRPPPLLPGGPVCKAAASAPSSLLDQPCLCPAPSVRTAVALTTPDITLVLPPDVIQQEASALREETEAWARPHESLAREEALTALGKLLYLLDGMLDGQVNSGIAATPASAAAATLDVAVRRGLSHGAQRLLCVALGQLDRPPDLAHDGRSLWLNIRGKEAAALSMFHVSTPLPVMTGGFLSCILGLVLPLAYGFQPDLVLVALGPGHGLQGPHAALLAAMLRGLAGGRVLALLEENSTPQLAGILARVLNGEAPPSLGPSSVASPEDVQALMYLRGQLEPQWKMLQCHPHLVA
assay_metric: pIC50
Bear in mind: pIC50 is minus log10 of a mol/L concentration; give just that figure.

Query pIC50 for "Cn1cc(CNCC2CCN(c3ncc(C(=O)NO)cn3)CC2)c2ccccc21"
8.31

====

System: proteasome ChT-like activity in RPMI-8226 cells
Assay: Cell-based high-throughput screen of proteasome ChT-like activity (LLVY-R110)
Design: species or system human
Details: 3 µmol/L, 21 hours, then LLVY-R110 18 hours
Fold-Increase of proteasome ChT-like activity in the HTS: recorded values
Give just the number in fold; leave the unit off.

Worked set:
Query Fold-Increase of proteasome ChT-like activity in the HTS for "O=C(NO)c1cnc(NC2(c3ccccc3)CC2)nc1"
1.6

Query Fold-Increase of proteasome ChT-like activity in the HTS for COc1ccc(C2CNC(=O)C2)cc1OC1CCCC1 (centres unmarked)
1.3

Query Fold-Increase of proteasome ChT-like activity in the HTS for CCN(CCO)CCCC(C)Nc1ccnc2cc(Cl)ccc12 (centres unmarked) [Hydroxychloroquine]
1.2

Query Fold-Increase of proteasome ChT-like activity in the HTS for "OCCN(CCO)c1nc(N2CCCCC2)c2nc(N(CCO)CCO)nc(N3CCCCC3)c2n1"
2.0

Next:
Query Fold-Increase of proteasome ChT-like activity in the HTS for "C=C[C@](C)(O)CC[C@@H]1[C@@]2(C)CCCC(C)(C)[C@@H]2CC[C@@]1(C)O"
1.4

====

Assay: Cell viability, XTT assay
Assay type: cell-based
Conditions: human, RPMI-8226 multiple myeloma cells, RPMI-8226 cells, XTT (Fig. 1C, 1D), read-out: cell viability maintained
assay_metric: viability at 16 h, 1 µmol/L

Worked set:
Query viability at 16 h, 1 µmol/L for CN1CCc2c(c3ccccc3n2Cc2ccc(C(=O)NO)cc2)C1 [Tubastatin-A]
≥ 75%

Query viability at 16 h, 1 µmol/L for O=C(NO)c1cnc(NC2(c3ccccc3)CC2)nc1 [ACY-738]
≥ 75%

Next:
Query viability at 16 h, 1 µmol/L for O=C(CCCCCCNC(=O)c1cnc(N(c2ccccc2)c2ccccc2)nc1)NO [ACY-1215]
≥ 75%
